Molecular target: UniProt P28223
Sequence (P28223 whole entry): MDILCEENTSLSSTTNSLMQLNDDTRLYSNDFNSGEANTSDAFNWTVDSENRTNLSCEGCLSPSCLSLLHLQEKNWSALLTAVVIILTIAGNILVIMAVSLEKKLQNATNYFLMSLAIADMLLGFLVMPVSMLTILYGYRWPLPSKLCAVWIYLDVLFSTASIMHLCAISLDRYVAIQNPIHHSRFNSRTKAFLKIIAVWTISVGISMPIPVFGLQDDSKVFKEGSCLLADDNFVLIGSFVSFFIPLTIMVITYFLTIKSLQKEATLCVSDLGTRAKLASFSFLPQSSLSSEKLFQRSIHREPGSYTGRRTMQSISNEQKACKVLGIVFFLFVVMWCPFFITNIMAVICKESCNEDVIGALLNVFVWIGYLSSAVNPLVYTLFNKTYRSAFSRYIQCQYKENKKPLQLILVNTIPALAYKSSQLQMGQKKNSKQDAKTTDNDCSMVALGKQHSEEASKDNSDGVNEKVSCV
Experiment: Serotonin 5-HT2A in vitro cellular IPOne antagonism assay (HTRF)
Format: cell-based
Design: host or cells: CHO-K1
Conditions: CHO-K1 cells, reference agonist a-Me-5HT
# maps each entry to its IC50
parameter: IC50

1) c1ccc2c3c([nH]c2c1)C[C@@H]1CCCN1CC3 [Compound 19] ... 101 to 1000 nM
2) c1ccc2c3c([nH]c2c1)CCN1CCC[C@@H]1C3 [Compound 22] ... 101 to 1000 nM
3) c1ccc2c3c([nH]c2c1)C[C@H]1CCCN1CC3 [Compound 20] ... 1000 to 10000 nM
4) c1ccc2c3c([nH]c2c1)CC1CCCN1CC3 (centres unmarked) [Compound 4] ... 101 to 1000 nM
5) COc1ccc2c3c([nH]c2c1)CCN1CCC[C@@H]1C3 [Compound 24] ... 101 to 1000 nM
6) COc1ccc2c3c([nH]c2c1)C[C@H]1CCCN1CC3 [Compound 18] ... 101 to 1000 nM
7) COc1ccc2c3c([nH]c2c1)CCN1CCC[C@H]1C3 [Compound 25] ... 101 to 1000 nM
8) c1ccc2c3c([nH]c2c1)CCN1CCCC1C3 (centres unmarked) [Compound 7] ... 101 to 1000 nM
9) COc1cccc2[nH]c3c(c12)C[C@@H]1CCCN1CC3 [Compound 27] ... 10 to 100 nM
10) COc1cccc2[nH]c3c(c12)C[C@H]1CCCN1CC3 [Compound 26] ... < 10 nM
11) c1ccc2c3c([nH]c2c1)CCN1CCC[C@H]1C3 [Compound 23] ... 10 to 100 nM
12) FC(F)(F)c1cccc2[nH]c3c(c12)CC1CCCN1CC3 (centres unmarked) [Compound 28] ... 10 to 100 nM
13) COc1ccc2c3c([nH]c2c1)C[C@@H]1CCCN1CC3 [Compound 17] ... > 10000 nM
14) Cn1c2c(c3ccccc31)CCN1CCCC1C2 (centres unmarked) [Compound 3] ... 101 to 1000 nM
15) Cn1c2c(c3ccccc31)CC1CCCN1CC2 (centres unmarked) [Compound 6] ... 101 to 1000 nM
16) FC(F)(F)Oc1ccc2c3c([nH]c2c1)CC1CCCN1CC3 (centres unmarked) [Compound 13] ... 101 to 1000 nM
17) FC(F)(F)c1cccc2[nH]c3c(c12)CCN1CCCC1C3 (centres unmarked) [Compound 21] ... 101 to 1000 nM

----------
Test system: rat cortical neurons
Assay: Neurite outgrowth in primary neuronal cultures assay
Assay type: cell-based
Parameters: key: A: Statistically significant mean increase as a percent of DMSO control at 10 μM or less; B: No statistically significant mean increase as a percent of DMSO control at 10 μM or less
Details: 72h, vs DMSO control, 10 μM or less
parameter: INCREASE IN NEURITE BRANCHING

1) COc1ccc2c3c([nH]c2c1)CCN1CCC[C@H]1C3 [Compound 25] ... A
2) COc1ccc2c3c([nH]c2c1)CCN1CCCC1C3 (centres unmarked) [Compound 1] ... B
3) c1ccc2c3c([nH]c2c1)CCN1CCC[C@@H]1C3 [Compound 22] ... A
4) FC(F)(F)c1cccc2[nH]c3c(c12)CCN1CCCC1C3 (centres unmarked) [Compound 21] ... A
5) COc1ccc2c3c([nH]c2c1)CC1CCCN1CC3 (centres unmarked) [Compound 2] ... A
